ASSAY REMARKS: Test 4: metabolic stability test in human hepatic microsome
Assay type: in vitro ADME
CONDITION INFO: 0.1 mg/mL microsome, 0.1 μmol/L compound, 37° C., 30 minutes
Metabolic stability in human hepatic microsome values for the compounds below.
READOUT TYPE: Metabolic stability in human hepatic microsome

compound=Cc1noc2c1C(=O)N(CCN1CCN(c3nsc4ccccc34)CC1)CC2 result="0.124 mL/min/mg protein"
compound=CC(C)n1cc2c(n1)CCN(CCN1CCN(c3nsc4ccccc34)CC1)C2=O result="0.196 mL/min/mg protein"
compound=Cn1ncc2c1CCCN(CCN1CCC(c3noc4ccccc34)CC1)C2=O result="<0.01 mL/min/mg protein"
compound="CC1CN(CCN2CCC(c3noc4ccccc34)CC2)C(=O)c2ncccc21 (centres unmarked)" result="0.055 mL/min/mg protein"
compound=O=C1c2nc(Cl)ccc2CCN1CCN1CCC(c2noc3ccccc23)CC1 result="<0.05 mL/min/mg protein"
compound=CCn1cc2c(n1)CCN(CCN1CCN(c3nsc4ccccc34)CC1)C2=O result="0.118 mL/min/mg protein"
compound=O=C1c2cnc(C(F)(F)F)cc2CCN1CCN1CCN(c2nsc3ccccc23)CC1 result="0.353 mL/min/mg protein"
compound=Cn1cc2c(n1)C(=O)N(CCN1CCN(c3nsc4ccccc34)CC1)CC2 result="0.038 mL/min/mg protein"
compound="Cn1ncc2c1CCC(CCN1CCC(c3noc4ccccc34)CC1)C2=O (centres unmarked)" result="0.017 mL/min/mg protein"
compound=O=c1c2cnccc2ccn1CCN1CCC(c2noc3ccccc23)CC1 result="<0.01 mL/min/mg protein"
compound=Cc1cc2ccn(CCN3CCN(c4noc5ccccc45)CC3)c(=O)c2cn1 result="0.079 mL/min/mg protein"
compound=Cn1cc2c(n1)C(=O)N(CCN1CCC(c3noc4ccccc34)CC1)CC2 result="<0.05 mL/min/mg protein"
compound=O=C1c2nc(Cl)ccc2CCN1CCN1CCN(c2noc3ccccc23)CC1 result="<0.05 mL/min/mg protein"
compound=O=C1c2cncnc2CCN1CCN1CCC(c2noc3ccccc23)CC1 result="0.013 mL/min/mg protein"
compound=Cn1ncc2c1CCN(CCN1CCN(c3noc4ccccc34)CC1)C2=O result="<0.05 mL/min/mg protein"
compound=N#Cc1cc2c(cn1)C(=O)N(CCN1CCN(c3nsc4ccccc34)CC1)CC2 result="0.194 mL/min/mg protein"
compound="O=C1c2ncccc2CCC1CCN1CCN(c2nsc3ccccc23)CC1 (centres unmarked)" result="0.398 mL/min/mg protein"
compound=O=C1c2cccnc2CCN1CCN1CCN(c2nsc3ccccc23)CC1 result="0.100 mL/min/mg protein"
compound=O=C1c2nc(F)ccc2CCN1CCN1CCC(c2noc3ccccc23)CC1 result="<0.05 mL/min/mg protein"
compound=Cn1cc2c(n1)C(=O)N(CCN1CCN(c3nsc4ccccc34)CC1)CCC2 result="0.063 mL/min/mg protein"
compound=CC(C)n1ncc2c1CCN(CCN1CCC(c3noc4ccccc34)CC1)C2=O result="<0.05 mL/min/mg protein"
compound=Cc1nccc2c1C(=O)N(CCN1CCC(c3noc4ccccc34)CC1)CC2 result="0.458 mL/min/mg protein"
compound=O=C1c2ncccc2CCN1CCN1CCN(c2noc3cc(F)ccc23)CC1 result="<0.05 mL/min/mg protein"

----------
pIC50 values for the molecules below.
STUDY TARGET: hERG channel (Homo sapiens (Human), UniProt Q12809)
Sequence (Q12809 whole entry): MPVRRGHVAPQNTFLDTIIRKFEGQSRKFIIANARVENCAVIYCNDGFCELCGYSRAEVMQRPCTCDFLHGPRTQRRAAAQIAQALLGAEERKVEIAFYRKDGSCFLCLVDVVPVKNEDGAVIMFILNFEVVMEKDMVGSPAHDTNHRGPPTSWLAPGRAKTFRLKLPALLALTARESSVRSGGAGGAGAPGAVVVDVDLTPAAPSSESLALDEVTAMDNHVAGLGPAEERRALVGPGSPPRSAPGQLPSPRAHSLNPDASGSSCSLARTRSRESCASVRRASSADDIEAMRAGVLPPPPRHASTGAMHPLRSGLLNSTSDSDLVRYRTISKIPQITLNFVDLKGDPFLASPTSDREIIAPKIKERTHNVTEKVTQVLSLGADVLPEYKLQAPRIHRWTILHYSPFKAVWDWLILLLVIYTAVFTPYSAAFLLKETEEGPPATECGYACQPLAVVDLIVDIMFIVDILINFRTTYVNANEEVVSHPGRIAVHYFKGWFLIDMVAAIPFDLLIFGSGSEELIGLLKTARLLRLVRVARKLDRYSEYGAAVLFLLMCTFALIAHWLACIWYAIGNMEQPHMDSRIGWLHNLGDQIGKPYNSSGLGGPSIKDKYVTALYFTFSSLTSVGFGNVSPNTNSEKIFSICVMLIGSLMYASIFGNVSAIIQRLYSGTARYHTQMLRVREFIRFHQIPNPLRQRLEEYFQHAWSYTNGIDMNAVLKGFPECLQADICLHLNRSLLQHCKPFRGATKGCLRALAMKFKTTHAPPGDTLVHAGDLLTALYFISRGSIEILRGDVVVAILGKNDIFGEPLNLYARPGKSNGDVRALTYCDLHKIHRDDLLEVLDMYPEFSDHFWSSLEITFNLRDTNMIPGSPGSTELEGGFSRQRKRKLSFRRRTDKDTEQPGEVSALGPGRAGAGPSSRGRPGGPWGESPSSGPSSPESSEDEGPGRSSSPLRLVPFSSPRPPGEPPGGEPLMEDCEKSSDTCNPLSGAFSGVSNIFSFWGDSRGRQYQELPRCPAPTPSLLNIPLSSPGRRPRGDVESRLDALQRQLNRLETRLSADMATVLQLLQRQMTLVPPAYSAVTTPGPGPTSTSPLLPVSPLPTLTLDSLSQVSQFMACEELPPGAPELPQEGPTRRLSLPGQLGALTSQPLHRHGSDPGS
ASSAY REMARKS: Test 6-1: inhibitory activity for hERG channel (auto patch clamp, Qpatch)
Assay type: cell-based
CONDITION INFO: whole cell auto patch clamp, hERG-CHO cells; read-out: hERG inhibition IC50
pIC50: −log10 of the molar value.
READOUT TYPE: pIC50

molecule=O=C1c2cnc(C(F)(F)F)cc2CCN1CCN1CCN(c2nsc3ccccc23)CC1 study_target="hERG channel (Homo sapiens (Human), UniProt Q12809)" bound_sign== number=5.62
molecule=Cc1nc2c(o1)C(=O)N(CCN1CCN(c3nsc4ccccc34)CC1)CC2 study_target="hERG channel (Homo sapiens (Human), UniProt Q12809)" bound_sign== number=5.15
molecule=Cc1cc2c(cn1)C(=O)N(CCN1CCN(c3noc4ccccc34)CC1)CC2 study_target="hERG channel (Homo sapiens (Human), UniProt Q12809)" bound_sign== number=5.10
molecule="O=C1c2ncccc2CCC1CCN1CCN(c2noc3cc(F)ccc23)CC1 (stereo not drawn)" study_target="hERG channel (Homo sapiens (Human), UniProt Q12809)" bound_sign== number=6.10
molecule=O=C1c2oc(C3CC3)nc2CCN1CCN1CCC(c2noc3ccccc23)CC1 study_target="hERG channel (Homo sapiens (Human), UniProt Q12809)" bound_sign=> number=6.57
molecule=Cc1cncc2c1CCN(CCN1CCC(c3noc4ccccc34)CC1)C2=O study_target="hERG channel (Homo sapiens (Human), UniProt Q12809)" bound_sign== number=5.92
molecule=O=C1c2cccnc2CCN1CCN1CCC(c2noc3cc(F)ccc23)CC1 study_target="hERG channel (Homo sapiens (Human), UniProt Q12809)" bound_sign=> number=6.52
molecule="CC1CN(CCN2CCC(c3noc4ccccc34)CC2)C(=O)c2ncccc21 (stereo not drawn)" study_target="hERG channel (Homo sapiens (Human), UniProt Q12809)" bound_sign== number=5.80
molecule=Cn1ccc2c1CCN(CCN1CCC(c3noc4ccccc34)CC1)C2=O study_target="hERG channel (Homo sapiens (Human), UniProt Q12809)" bound_sign== number=6.15

----------
STUDY TARGET: hERG channel (Homo sapiens (Human))
ASSAY REMARKS: Test 6-1: inhibitory activity for hERG channel (auto patch clamp, Qpatch)
Assay type: cell-based
CONDITION INFO: whole cell auto patch clamp, hERG-CHO cells; read-out: hERG inhibition IC50
READOUT TYPE: IC50

smiles_string=CC(C)n1cc2c(n1)CCN(CCN1CCN(c3nsc4ccccc34)CC1)C2=O readout_type=IC50 result="1200 nM"
smiles_string=Cc1ncc2c(n1)CCN(CCN1CCN(c3nsc4ccccc34)CC1)C2=O readout_type=IC50 result="> 10000 nM"
smiles_string=O=C1c2cn(C3CC3)nc2CCN1CCN1CCN(c2nsc3ccccc23)CC1 readout_type=IC50 result="1200 nM"
smiles_string=O=C1c2cn(-c3ccccc3)nc2CCN1CCN1CCN(c2nsc3ccccc23)CC1 readout_type=IC50 result="< 300 nM"
smiles_string=O=C1c2cncnc2CCN1CCN1CCC(c2noc3ccccc23)CC1 readout_type=IC50 result="2200 nM"
smiles_string=COc1c2c(nn1C)CCN(CCN1CCN(c3nsc4ccccc34)CC1)C2=O readout_type=IC50 result="4800 nM"
smiles_string=Cc1noc2ccn(CCN3CCC(c4noc5ccccc45)CC3)c(=O)c12 readout_type=IC50 result="700 nM"
smiles_string=Cn1cc2c(n1)C(=O)N(CCN1CCN(c3nsc4ccccc34)CC1)CC2 readout_type=IC50 result="8500 nM"
smiles_string=Cn1ncc2c1C(=O)N(CCN1CCC(c3noc4ccccc34)CC1)CC2 readout_type=IC50 result="1200 nM"

----------
STUDY TARGET: human 5-HT2A receptor (Homo sapiens (Human), UniProt P28223)
Sequence (P28223 whole entry): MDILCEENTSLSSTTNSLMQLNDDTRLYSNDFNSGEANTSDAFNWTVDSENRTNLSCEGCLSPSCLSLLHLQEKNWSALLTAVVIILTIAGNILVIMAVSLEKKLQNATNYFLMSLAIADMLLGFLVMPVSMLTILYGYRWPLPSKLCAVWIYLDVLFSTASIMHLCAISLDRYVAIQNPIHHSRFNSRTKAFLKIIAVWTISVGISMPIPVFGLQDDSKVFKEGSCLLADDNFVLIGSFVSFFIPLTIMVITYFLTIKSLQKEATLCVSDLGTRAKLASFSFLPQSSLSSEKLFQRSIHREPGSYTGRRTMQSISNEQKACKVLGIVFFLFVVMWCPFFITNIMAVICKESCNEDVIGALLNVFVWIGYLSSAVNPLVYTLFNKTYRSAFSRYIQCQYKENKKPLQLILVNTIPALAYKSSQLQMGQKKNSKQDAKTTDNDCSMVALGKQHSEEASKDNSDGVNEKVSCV
pKi: −log10 of the molar value.
# pKi >= 8 gives 1, anything below gives -1

compound="O=C1c2ncccc2CCN1CCN1CCC(c2noc3c(F)cccc23)CC1 [Example 140]" class_label=-1
compound="Cc1nc2c(o1)C(=O)N(CCN1CCN(c3noc4ccccc34)CC1)CC2 [Example 178]" class_label=-1
compound="Cn1ncc2c1CCCC(CCN1CCC(c3noc4ccccc34)CC1)C2=O (stereo not shown) [Example 30]" class_label=1
compound="O=C1c2ncccc2CCN1CCN1CCC(c2nsc3ccccc23)CC1 [Example 26]" class_label=1
compound="Cc1ncc2c(=O)n(CCN3CCN(c4noc5ccccc45)CC3)ccc2n1 [Example 193]" class_label=-1
compound="Cc1cc2c(C3CCN(CCN4CCc5cccnc5C4=O)CC3)noc2cc1F [Example 6]" class_label=-1
compound="Cn1cnc2c1CCCN(CCN1CCC(c3noc4ccccc34)CC1)C2=O [Example 101]" class_label=1
compound="O=C1c2ncccc2CCN1CCN1CCC(c2noc3cc(F)ccc23)CC1 [Example 125]" class_label=1
compound="Cc1noc2c1C(=O)N(CCN1CCN(c3nsc4ccccc34)CC1)CCC2 [Example 40]" class_label=1
compound="Cn1ncc2c1CCC(CCN1CCC(c3noc4ccccc34)CC1)C2=O (stereo not shown) [Example 28]" class_label=1
compound="Cn1cnc2c1C(=O)N(CCN1CCN(c3nsc4ccccc34)CC1)CC2 [Example 56]" class_label=1

----------
STUDY TARGET: human 5-HT1A receptor (Homo sapiens (Human))
Sequence (P08908 whole entry): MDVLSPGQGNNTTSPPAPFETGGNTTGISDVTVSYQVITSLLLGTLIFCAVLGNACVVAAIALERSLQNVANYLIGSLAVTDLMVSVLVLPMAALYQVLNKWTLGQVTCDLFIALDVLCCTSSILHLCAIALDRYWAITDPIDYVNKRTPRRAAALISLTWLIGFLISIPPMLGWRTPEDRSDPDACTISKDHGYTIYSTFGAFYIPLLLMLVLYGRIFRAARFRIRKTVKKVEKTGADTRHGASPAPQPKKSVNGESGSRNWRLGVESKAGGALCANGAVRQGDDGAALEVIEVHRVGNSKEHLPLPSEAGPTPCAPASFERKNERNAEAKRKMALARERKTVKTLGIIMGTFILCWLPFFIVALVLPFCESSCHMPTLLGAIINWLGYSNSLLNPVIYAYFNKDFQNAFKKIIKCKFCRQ
ASSAY REMARKS: Test 2: agonist activity for human 5-HT1A receptor ([35S]GTPγS binding)
Assay type: biochemical
CONDITION INFO: agonist activity in the presence of 10 μM of compound, relative to 100 μmol/L 5-HT
Emax at 10 µM values for the molecules below.
READOUT TYPE: Emax at 10 µM (%)

smiles_string=Cc1noc2c1C(=O)N(CCN1CCN(c3noc4ccccc34)CC1)CC2 readout_type="Emax at 10 µM" number=39
smiles_string=O=C1c2cccnc2CCN1CCN1CCN(c2noc3ccccc23)CC1 readout_type="Emax at 10 µM" number=16
smiles_string=Cn1ccc2c1CCCN(CCN1CCC(c3noc4ccccc34)CC1)C2=O readout_type="Emax at 10 µM" number=62
smiles_string=Cn1cc2c(n1)CCCN(CCN1CCN(c3nsc4ccccc34)CC1)C2=O readout_type="Emax at 10 µM" number=57
smiles_string=O=C1c2cnc(Br)cc2CCN1CCN1CCN(c2nsc3ccccc23)CC1 readout_type="Emax at 10 µM" number=62

These measurements were taken from patent US10745401B2.
